System: non-malignant Caco-2 cells
Test: MTS cell viability assay, Caco-2
Assay type: cell-based, human
Settings: Homo sapiens, Caco-2, 120 h; MTS, 5 d; sufficient inhibition not achieved with doses up to 135 μM
Procedure: FIG. 13. Inhibition of cell viability by BKAc-Puro is presented in dose-response curve format for the same cell lines as in FIG. 8. […] Cell number was determined by cell counting using improved Neubauer hemacytometer. Cell viability was calculated as the number of viable cells divided by the total number of cells using Trypan Blue Stain (Invitrogen) to distinguish non-viable cells. […] After additional 2-3 h incubation, the absorbance of the formazan at 490 nm was measured by the microplate reader. […]
pIC50: −log10 of the molar value.

| COMPOUND | pIC50 |
| --- | --- |
| COc1ccc(CC(NC(=O)C(CCCCNC(C)=O)NC(=O)OC(C)(C)C)C(=O)NC2C(O)[C@H](n3cnc4c(N(C)C)ncnc43)O[C@@H]2CO)cc1 (stereo partly shown) [BKAc-Puro] | < 3.87 |

###

Test system: BxPC3 cells (shSki)
Test: MTT cell viability assay, BxPC3 shSki
Assay type: cell-based
Conditions: Homo sapiens, BXPC-3, 72 hr

| COMPOUND | MEASUREMENT_TARGET | ENDPOINT_UNIT | IC50 |
| --- | --- | --- | --- |
| Nc1nc(=O)n([C@@H]2O[C@H](CO)[C@@H](O)[C@H]2O)cc1F [5FCR, 5-fluorocytidine] | BxPC3 cells (shSki) | nM | 1200 |
